test: Stability assay with DOTA (1000:1 DOTA-to-ligand); format: physicochemical; details: RT, 7 h
Catalogue of % of intact complex, DOTA, 7 h values
Report the value in % with no unit label.

Would you please look over these solved cases?
[
  {
    "molecule": "CSCCN1CCNCCN(CCSC)CCN(CCSC)CC1.[64Cu+2] [[^64Cu][Cu(DO3S)]^2+]",
    "recorded_measurement": 100
  },
  {
    "molecule": "CSCCN1CCN(CC(=O)[O-])CCN(CCSC)CCN(CC(=O)[O-])CC1.[64Cu+2] [[^64Cu][Cu(DO2A2S)]]",
    "recorded_measurement": 90
  },
  {
    "molecule": "CNC(=O)CN1CCN(CCSC)CCN(CCSC)CCN(CCSC)CC1.[64Cu+2] [[^64Cu][Cu(DO3SAm)]^2+]",
    "recorded_measurement": 80
  }
]

Let's switch to this molecule now.
Prompt: Item CSCCN1CCN(CCSC)CCN(CCSC)CCN(CCSC)CC1.[64Cu+2] [[^64Cu][Cu(DO4S)]^2+] : provide % of intact complex, DOTA, 7 h
Response: 92

----------
assay: Stability assay with cysteine (1000:1 Cys-to-ligand); format: physicochemical; conditions: 37 °C, 24 h
// reported % of intact complex, Cysteine, 24 h for each item listed
A number alone suffices; assume %.

# annotated cases, reported % of intact complex, Cysteine, 24 h shown
[
  {
    "compound": "CSCCN1CCNCCN(CCSC)CCN(CCSC)CC1.[64Cu+2] [[^64Cu][Cu(DO3S)]^2+]",
    "u": "%",
    "% of intact complex, Cysteine, 24 h": 100
  },
  {
    "compound": "CSCCN1CCN(CC(=O)[O-])CCN(CCSC)CCN(CC(=O)[O-])CC1.[64Cu+2] [[^64Cu][Cu(DO2A2S)]]",
    "u": "%",
    "% of intact complex, Cysteine, 24 h": 74
  },
  {
    "compound": "CNC(=O)CN1CCN(CCSC)CCN(CCSC)CCN(CCSC)CC1.[64Cu+2] [[^64Cu][Cu(DO3SAm)]^2+]",
    "u": "%",
    "% of intact complex, Cysteine, 24 h": 72
  }
]

Prompt: For the compound CSCCN1CCN(CCSC)CCN(CCSC)CCN(CCSC)CC1.[64Cu+2] [[^64Cu][Cu(DO4S)]^2+] , give its reported % of intact complex, Cysteine, 24 h.
Response: 83

----------
test: Stability assay with DOTA (1000:1 DOTA-to-ligand); type: physicochemical; conditions: RT, 24 h
experimental_readout: % of intact complex, DOTA, 24 h (%)
Express it in %; write the number only.

Sample records with % of intact complex, DOTA, 24 h:
[
  {
    "molecule": "CNC(=O)CN1CCN(CCSC)CCN(CCSC)CCN(CCSC)CC1.[64Cu+2] [[^64Cu][Cu(DO3SAm)]^2+]",
    "% of intact complex, DOTA, 24 h [%]": 38
  },
  {
    "molecule": "CSCCN1CCN(CCSC)CCN(CCSC)CCN(CCSC)CC1.[64Cu+2] [[^64Cu][Cu(DO4S)]^2+]",
    "% of intact complex, DOTA, 24 h [%]": 88
  },
  {
    "molecule": "CSCCN1CCNCCN(CCSC)CCN(CCSC)CC1.[64Cu+2] [[^64Cu][Cu(DO3S)]^2+]",
    "% of intact complex, DOTA, 24 h [%]": 100
  }
]

Prompt: Indicate its recorded % of intact complex, DOTA, 24 h; the molecule in question is CSCCN1CCN(CC(=O)[O-])CCN(CCSC)CCN(CC(=O)[O-])CC1.[64Cu+2] [[^64Cu][Cu(DO2A2S)]]
Response: 87
